Values compiled from the supplement of paper PMC6555819.

- Tested on: PXR homodimer (NR concentration 270 nM)
- EXPERIMENT SUMMARY: PBM binding z-score (relative to random genomic background probes); higher = stronger binding; sequences stand for … in GC…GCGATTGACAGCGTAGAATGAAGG
ASSAY READOUT: PBM binding z-score
One number for each entry.

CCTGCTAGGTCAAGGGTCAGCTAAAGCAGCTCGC : 0.026
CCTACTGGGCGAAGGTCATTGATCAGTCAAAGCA : 0.36

List PBM binding z-score for every entry below, keeping the order given.
1. CGAACTAGGTCAGAGCAGGACAGTGAAGGATGAT
2. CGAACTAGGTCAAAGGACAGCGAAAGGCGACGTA
3. AGAATGAGGTTATACGTAGGTCAGGGAAGAAAGT
4. CGTCTAAGGTCAGCAGGTCAGTGAAAGCGACGTG

[reply]
-0.0767
-0.642
0.992
0.612
